Where do these numbers come from? They come from patent US12655116B2.

# System: LOLRI
# ASSAY OVERVIEW: Pre-emergence herbicidal action against LOLRI
# Type: in vivo, Lolium rigidum
# COND: 80 g/ha
# Text: Seeds of monocotyledonous and dicotyledonous weed plants and crop plants are laid out in sandy loam soil in wood-fiber pots and covered with soil. […] The damage to the test plants is scored visually after a test period of 3 weeks by comparison with untreated controls (herbicidal activity in percent (%): 100% activity=the plants have died, 0% activity=like control plants). […]
MEASURED PROPERTY: Pre-emergence action against LOLRI in % (%)
Only the number, expressed in %, is required.

// known answers, use as guide
CCn1nnnc1NC(=O)c1ccc(C(F)(F)F)c(C(=O)NCC(F)(F)F)c1Cl [Example 2-133] : 80
CCn1nnnc1NC(=O)c1ccc(C(F)(F)F)c(C(=O)NCC(F)F)c1Cl [Example 2-134] : 80
CCNC(=O)c1c(C(F)F)ccc(C(=O)Nc2nnnn2CC)c1C [Example 2-45] : 80

In plain terms, CSc1c(C(=O)Nc2nnnn2C)ccc(C(F)F)c1C(=O)NCC(F)F [Example 1-92] has a documented Pre-emergence action against LOLRI in % of 90

Record Cc1c(C(=O)Nc2nnnn2C)ccc(C(F)F)c1C(=O)NC(C)C1CC1 (stereo not drawn) [Example 1-339] . Reported Pre-emergence action against LOLRI in %: 100

Noted for Cc1c(C(=O)Nc2nnnn2C)ccc(C(F)F)c1C(=O)NCC1CC1 [Example 1-47] : its Pre-emergence action against LOLRI in % reads 80

Measured Pre-emergence action against LOLRI in %, Cn1nnnc1NC(=O)c1ccc(C(F)(F)F)c(C(=O)NCC(F)F)c1Cl [Example 1-134] : 80

Please fill in: Pre-emergence action against LOLRI in % reported for CCNC(=O)c1c(C(F)(F)F)ccc(C(=O)Nc2nnco2)c1Cl [Example 5-117] = 80

Pre-emergence action against LOLRI in % reading for CCc1c(C(=O)Nc2nnnn2CC)ccc(C(F)(F)F)c1C(=O)NCC(F)F [Example 2-276] : 80

----------
# maps each entry to its pest or weed control at 20 g/ha
# System: ECHCG
# ASSAY OVERVIEW: Post-emergence herbicidal action against ECHCG
# Type: in vivo, Echinochloa crus-galli
# COND: Echinochloa crus-galli, 504 h, dosage 20 g/ha
Give me the value, and tack the unit on after it.

Cn1nnnc1NC(=O)c1ccc(C(F)(F)F)c(C(=O)NC2CC2)c1C1CC1 : 80%
CC(C)NC(=O)c1c(C(F)(F)F)ccc(C(=O)Nc2nnnn2C)c1Cl : 90%
CCn1nnnc1NC(=O)c1ccc(C(F)F)c(C(=O)NC(C)C)c1C : 80%
CNC(=O)c1c(C(F)(F)F)ccc(C(=O)Nc2nnnn2C)c1C : 100%
CCNC(=O)c1c(C(F)(F)F)ccc(C(=O)Nc2nnnn2C)c1Cl : 80%

Recorded pest or weed control at 20 g/ha (compound CNC(=O)c1c(Br)ccc(C(=O)Nc2nnnn2C)c1Cl ): 90%

Record CCNC(=O)c1c(C(F)F)ccc(C(=O)Nc2nnnn2CC)c1Cl . Reported pest or weed control at 20 g/ha: 80%

Lab note: CCNC(=O)c1c(Cl)ccc(C(=O)Nc2nnnn2CC)c1Br gave pest or weed control at 20 g/ha of 80%

Quick note, pest or weed control at 20 g/ha for CCNC(=O)c1c(Br)ccc(C(=O)Nc2nnnn2C)c1Br landed at 90%

----------
// reported pest or weed control at 20 g/ha per item
# Tested on: SETVI
# ASSAY OVERVIEW: Pre-emergence herbicidal action against SETVI
# Assay type: in vivo, Setaria viridis
# COND: Setaria viridis, 504 h, dosage 20 g/ha
Just the number in %, nothing appended.

Examples from the recorded data:
CNC(=O)c1c(C(F)(F)F)ccc(C(=O)Nc2nnnn2C)c1C [Example 1-25] : 80
CNC(=O)c1c(I)ccc(C(=O)Nc2nnnn2C)c1Cl [Example 1-195] : 90
Cc1c(C(=O)Nc2nnnn2C)ccc(C(F)(F)F)c1C(=O)NC1CC1 [Example 1-27] : 100

For this molecule ( CCn1nnnc1NC(=O)c1ccc(C(F)(F)F)c(C(=O)NC(C)=O)c1Cl [Example 2-337] ), measured pest or weed control at 20 g/ha is 90

// field: pest or weed control at 20 g/ha; key: Cn1nnnc1NC(=O)c1ccc(C(F)(F)F)c(C(=O)NC2CC2)c1Br [Example 1-209] ; value = 90

# molecule CCNC(=O)c1c(C(F)F)ccc(C(=O)Nc2nnnn2C)c1C1CC1 [Example 1-305] ; its pest or weed control at 20 g/ha = 80

In plain terms, Cn1nnnc1NC(=O)c1ccc(C(F)F)c(C(=O)NC2CC2)c1Cl [Example 1-149] has a documented pest or weed control at 20 g/ha of 90

Lab book: pest or weed control at 20 g/ha of CCNC(=O)c1c(C(F)(F)F)ccc(C(=O)Nc2nnnn2CC)c1C1CC1 [Example 2-287] noted as 90

Form: molecule = CCn1nnnc1NC(=O)c1ccc(C(F)(F)F)c(C(=O)NC2CC2)c1OC [Example 2-58] ; pest or weed control at 20 g/ha = 100

----------
# System: AMARE
# ASSAY OVERVIEW: Post-emergence herbicidal action against AMARE
# Type: in vivo, Amaranthus retroflexus
# COND: Amaranthus retroflexus, 504 h, 20 g/ha, visual assessment about 3 weeks after treatment, 100% = plants have died, 0% = like control plants
pest or weed control at 20 g/ha values, listed per item
API: value field is a number in %; no unit string.

CCn1nnnc1NC(=O)c1ccc(C(F)(F)F)c(C(N)=O)c1Cl : 100

The measured pest or weed control at 20 g/ha associated with CCNC(=O)c1c(C(F)(F)F)ccc(C(=O)Nc2nnnn2CC)c1Cl reads 100

Recorded result, CCn1nnnc1NC(=O)c1ccc(C(F)F)c(C(=O)NC(C)C)c1Cl , pest or weed control at 20 g/ha: 90

CCNC(=O)c1c(C(F)(F)F)ccc(C(=O)Nc2nnnn2CC)c1C1CC1 has a reported pest or weed control at 20 g/ha of 100

----------
# Test system: ABUTH
# ASSAY OVERVIEW: Pre-emergence herbicidal action against ABUTH
# Format: in vivo, Abutilon theophrasti
# COND: Abutilon theophrasti, 504 h, Dosage: 320 g/ha, scored visually after 3 weeks, 100% = plants have died, 0% = like control plants
MEASURED PROPERTY: pest or weed control at 320 g/ha (%)
Quick note: give the figure in %, leave out the unit.

Reference set (7 entries):
CCn1nnnc1NC(=O)c1ccc(C(F)(F)F)c(C(=O)NC)c1SC [Example 2-81] : 100
CCNC(=O)c1c(C(F)(F)F)ccc(C(=O)Nc2nnnn2CC)c1SC [Example 2-82] : 100
CCNC(=O)c1c(C(F)F)ccc(C(=O)Nc2nnnn2C)c1Cl [Example 1-148] : 100
CNC(=O)c1c(C(F)(F)F)ccc(C(=O)Nc2nnnn2C)c1Cl [Example 1-129] : 100
CNC(=O)c1c(C(F)(F)F)ccc(C(=O)Nc2nnc(C)o2)c1SC [Example 6-58] : 100
CCn1nnnc1NC(=O)c1ccc(C(F)F)c(C(=O)NC)c1Cl [Example 2-147] : 100
CCNC(=O)c1c(C(F)(F)F)ccc(C(=O)Nc2nnc(C)o2)c1Cl [Example 6-117] : 100

--- query ---
In plain terms, CNC(=O)c1c(C(F)(F)F)ccc(C(=O)Nc2nnnn2C)c1SC [Example 1-81] has a documented pest or weed control at 320 g/ha of 100

----------
# Tested on: ABUTH
# ASSAY OVERVIEW: Pre-emergence herbicidal action against ABUTH
# Format: in vivo, Abutilon theophrasti
# COND: 80 g/ha, scored visually after 3 weeks vs untreated controls (100% = plants have died, 0% = like control plants)
Measured Pre-emergence action against ABUTH (herbicidal activity), listed per entry for reference.
Give just the numeric value; % need not be written.

Some compounds with known Pre-emergence action against ABUTH (herbicidal activity) results, for comparison:
Cc1nnc(NC(=O)c2ccc(C(F)F)c(C(=O)NC3CC3)c2Cl)o1 : 100
CCn1nnnc1NC(=O)c1ccc(C(F)F)c(C(=O)NCC(=O)N(C)C)c1Cl : 90
CNC(=O)c1c(C(F)(F)F)ccc(C(=O)Nc2nnco2)c1SC : 100

Per the records, this compound ( CCn1nnnc1NC(=O)c1ccc(C(F)(F)F)c(C(=O)NC2CCC2)c1Cl ) has Pre-emergence action against ABUTH (herbicidal activity) equal to 90

Per the records, this compound ( CCn1nnnc1NC(=O)c1ccc(S(C)(=O)=O)c(C(=O)NC2CC2)c1Cl ) has Pre-emergence action against ABUTH (herbicidal activity) equal to 100

Field Pre-emergence action against ABUTH (herbicidal activity) (entry CCNC(=O)c1c(C(F)F)ccc(C(=O)Nc2nnnn2CC)c1C1CC1 ) reads 100

Record summary for Cc1c(C(=O)Nc2nnnn2C)ccc(C(F)F)c1C(=O)NCC(F)F : reported Pre-emergence action against ABUTH (herbicidal activity) = 100

Per the record, CCn1nnnc1NC(=O)c1ccc(C(F)(F)F)c(C(=O)NC2CCC2)c1C has Pre-emergence action against ABUTH (herbicidal activity) of 100
